Tested on: cultured dopaminergic neurons
experiment: High-affinity 3H-dopamine uptake after MPP+ induced toxicity in mesencephalic dopaminergic neuron cultures
Assay type: cell-based, rat
test settings: Rattus norvegicus, Neuron; relative to maximum protection (84% uptake) afforded by 10 ng/mL GDNF; read-out: EC50 of neuroprotection against MPP+-induced neurotoxicity
reported endpoint: EC50 (nM)
Give the value, in units of nM, as a plain number.

For CC/C1=C\CC(/C(C)=C/C(C)C(C)O)OC(=O)C2CCCCN2C(=O)C(=O)C2(O)OC(CCC2C)CC(O)C(C)C(O)CC(O)CC(O)/C(C)=C/C(C)CC(C)C1O (stereo not shown) the compound record lists EC50 as 555
